# Test Target: Thrombin (Homo sapiens)
# Assay Procedure: biochemical
# Settings: TAME hydrolysis; read-out: ID50, thrombin
pIC50: −log10 of the molar value.
I would appreciate it if you labelled entries Yes when pIC50 is 6 or higher, otherwise No.

Compound	Label
COc1cc(C(=N)N)ccc1OC(=O)c1ccc(CN)cc1	No
N=C(N)c1ccc(OC(=O)CCCCCN)c(C(=O)c2ccccc2)c1	No
CC(=O)Oc1ccc(C=CC(=O)Oc2ccc(C(=N)N)cc2C(=O)c2ccccc2)cc1	Yes
N=C(N)c1ccc(OC(=O)CCNC(=O)OCc2ccccc2)c(C(=O)c2ccccc2)c1	No
N=C(N)c1ccc(OC(=O)C=Cc2ccc3c(c2)OCO3)c([N+](=O)[O-])c1	Yes
N=C(N)c1ccc(OC(=O)c2ccccc2)c(C(=O)c2ccccc2)c1 [Compound 29, 4-amidino-2-benzoylphenyl benzoate]	Yes
CC=CC=CC(=O)Oc1ccc(C(=N)N)cc1C(=O)OC	No
Cc1cc(OC(=O)c2ccccc2)ccc1C(=N)N [Compound 22, 4-amidino-3-methylphenyl benzoate]	No

Now consider a different compound.
Say whether CSc1ccc(C(=O)Oc2ccc(C(=N)N)cc2C(=O)c2ccccc2)cc1 shows pIC50 of 6 or more.
Yes
